# System: ob/ob mice
# PROCEDURE_SUMMARY: Fasting blood glucose in ob/ob mice, several heptacyclic compounds, 8 days
# Type: in vivo
# SETTINGS: oral 100 mg/kg once daily, after 8 days treatment
# Experimental: Genetic spontaneous diabetes ob/ob mice were purchased from Jackson (USA), and maintained in a SPF facility (temperature: 22-24° C., humidity: 45-80%, illumination: 150-300 Lx, 12/12-hour light/dark cycle). Fasting blood glucose was determined for 3 days continuously when the mice were 7 weeks old. The mice were grouped into the treatment group and the control group (6 animals per group) according to the results determined. […] Fasting blood glucose in mice was determined at the end of experiment.
Fasting Blood Glucose values by entry
PROPERTY_NAME: Fasting Blood Glucose (mM)

| MOLECULE | UNIT_NAME | RECORDED_RESULT |
| --- | --- | --- |
| COc1cc(C(=O)O)c2c(c1C)OC(=O)c1c(C)cc(O)c(C=O)c1O2 [Compound F7] | mM | 8.12 |
| CCOCc1c(O)c(C(=O)O)c(C)c2c1OC(=O)c1c(C)cc(O)c(C=O)c1O2 [Compound G0] | mM | 8.07 |
| COc1cc(C(=O)O)c2c(c1C)OC(=O)c1c(C)cc(O)c(CO)c1O2 [Compound E9] | mM | 8.68 |
| CN(C)C(=N)N=C(N)N [Metformin, reference compound] | mM | 8.13 |
